- target under test: Voltage-gated inwardly rectifying potassium channel KCNH2 (Homo sapiens)
- Sequence (Q12809 whole entry): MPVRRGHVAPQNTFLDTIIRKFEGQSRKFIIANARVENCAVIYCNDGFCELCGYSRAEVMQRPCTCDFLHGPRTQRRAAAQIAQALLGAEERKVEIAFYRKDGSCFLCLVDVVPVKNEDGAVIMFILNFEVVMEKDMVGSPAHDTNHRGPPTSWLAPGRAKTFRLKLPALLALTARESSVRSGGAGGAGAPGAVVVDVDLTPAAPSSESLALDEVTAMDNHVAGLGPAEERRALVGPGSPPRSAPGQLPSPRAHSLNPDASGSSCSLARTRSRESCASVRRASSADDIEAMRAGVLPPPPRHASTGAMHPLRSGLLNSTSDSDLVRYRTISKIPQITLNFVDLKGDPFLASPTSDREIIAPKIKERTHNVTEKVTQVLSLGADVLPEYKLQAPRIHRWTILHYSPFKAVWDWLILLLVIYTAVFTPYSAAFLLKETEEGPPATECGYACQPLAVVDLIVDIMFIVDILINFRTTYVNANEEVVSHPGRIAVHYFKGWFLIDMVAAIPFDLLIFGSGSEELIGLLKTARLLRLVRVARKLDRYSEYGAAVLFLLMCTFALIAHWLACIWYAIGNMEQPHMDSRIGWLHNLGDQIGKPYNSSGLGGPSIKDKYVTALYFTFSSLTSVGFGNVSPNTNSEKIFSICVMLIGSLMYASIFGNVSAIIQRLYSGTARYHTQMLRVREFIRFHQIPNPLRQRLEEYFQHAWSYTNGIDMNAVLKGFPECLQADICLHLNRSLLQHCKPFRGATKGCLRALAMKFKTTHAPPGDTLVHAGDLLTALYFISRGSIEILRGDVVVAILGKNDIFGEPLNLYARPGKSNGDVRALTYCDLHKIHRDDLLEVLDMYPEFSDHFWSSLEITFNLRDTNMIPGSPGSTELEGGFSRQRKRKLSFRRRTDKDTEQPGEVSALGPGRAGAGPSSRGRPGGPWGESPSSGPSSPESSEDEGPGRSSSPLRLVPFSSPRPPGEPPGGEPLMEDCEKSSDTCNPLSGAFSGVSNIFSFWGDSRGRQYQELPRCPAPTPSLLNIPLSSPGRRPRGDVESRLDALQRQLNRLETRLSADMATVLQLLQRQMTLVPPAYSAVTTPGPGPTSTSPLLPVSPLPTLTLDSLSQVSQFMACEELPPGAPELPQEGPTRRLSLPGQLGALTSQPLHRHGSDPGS
pIC50: −log10 of the molar value.
property: pIC50

Task item: Look up pIC50 of COc1c(OCc2ccc(F)cc2)cc2oc3cc4c(c(OC/C=C/C(=O)O)c3c(=O)c2c1CC=C(C)C)C=CC(C)(C)O4 and report it.
Reply: < 4.40

---

- test name: Tmax in Sprague-Dawley rat at 10 mg/kg, po
- Assay type: ADME, organism-based
- recorded conditions: in vivo
property: Tmax (h)
Report as a plain number; the unit h is understood.

Task item: Look up Tmax of COc1c(OCc2ccc(F)cc2)cc2oc3cc4c(c(OC/C=C/C(=O)O)c3c(=O)c2c1CC=C(C)C)C=CC(C)(C)O4 and report it.
Reply: 1

---

- target under test: Cytochrome P450 2D6 (Homo sapiens)
- Sequence (P10635 whole entry): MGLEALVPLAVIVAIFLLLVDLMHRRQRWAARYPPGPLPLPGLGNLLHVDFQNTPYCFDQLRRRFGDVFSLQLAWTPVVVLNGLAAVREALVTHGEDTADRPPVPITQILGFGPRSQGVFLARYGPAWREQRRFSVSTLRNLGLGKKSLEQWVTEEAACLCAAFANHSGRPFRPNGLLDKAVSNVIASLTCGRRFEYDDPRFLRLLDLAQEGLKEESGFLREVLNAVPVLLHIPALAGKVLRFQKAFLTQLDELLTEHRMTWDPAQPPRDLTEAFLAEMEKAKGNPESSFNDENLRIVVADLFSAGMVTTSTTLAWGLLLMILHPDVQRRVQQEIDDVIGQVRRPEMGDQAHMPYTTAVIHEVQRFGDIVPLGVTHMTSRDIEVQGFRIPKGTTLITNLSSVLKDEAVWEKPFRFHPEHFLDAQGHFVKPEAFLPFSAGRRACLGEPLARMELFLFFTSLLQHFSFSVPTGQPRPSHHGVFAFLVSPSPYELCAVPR
property: IC50

Task item: Look up IC50 of COc1c(OCc2ccc(F)cc2)cc2oc3cc4c(c(OC/C=C/C(=O)O)c3c(=O)c2c1CC=C(C)C)C=CC(C)(C)O4 and report it.
Reply: > 25 µM
